assayTarget: recombinant EphB4 (Homo sapiens)
Construct: amino acids 563-987; Swiss-Prot Acc; No. P54760
Sequence (P54760 563-987): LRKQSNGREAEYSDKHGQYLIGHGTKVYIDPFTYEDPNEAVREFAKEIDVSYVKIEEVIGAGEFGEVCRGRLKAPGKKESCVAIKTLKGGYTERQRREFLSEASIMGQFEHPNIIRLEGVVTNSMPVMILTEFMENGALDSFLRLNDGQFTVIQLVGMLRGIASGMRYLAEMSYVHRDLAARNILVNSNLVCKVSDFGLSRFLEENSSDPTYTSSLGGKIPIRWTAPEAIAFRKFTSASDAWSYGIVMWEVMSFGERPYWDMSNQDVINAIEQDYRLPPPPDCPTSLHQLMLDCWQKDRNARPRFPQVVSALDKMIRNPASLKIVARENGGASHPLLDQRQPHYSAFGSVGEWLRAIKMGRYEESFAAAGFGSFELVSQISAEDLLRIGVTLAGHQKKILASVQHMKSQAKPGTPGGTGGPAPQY
testDescription: In vitro EphB4 enzyme assay (Alphascreen)
Could you please report measured pIC50 for the items listed next?
As a rule, pIC50 stands for the negative log10 of the concentration, concentration in M.

*Q* Kindly indicate its recorded pIC50. Item: `Cc1ccc(CO)cc1N(C)c1ccnc(Nc2cc(N3CCOCC3)cc(N3CCC(=O)CC3)c2)n1`
*A* 8.01

*Q* Kindly indicate its recorded pIC50. Item: `Cc1ccc(CO)cc1N(C)c1ccnc(Nc2cc(N3CCOCC3)cc(N3CCOC[C@@H]3C)c2)n1`
*A* 8.50

*Q* Kindly indicate its recorded pIC50. Item: COC(C)CCOc1cc(Nc2nccc(N(C)c3cc(CO)ccc3C)n2)cc(N2CCOCC2)c1 (stereo not shown)
*A* 5.92

*Q* Kindly indicate its recorded pIC50. Item: `CN(c1cccc(Cl)c1)c1ccnc(Nc2cc(C(=O)NC(C)(C)C)cc(N3CCOCC3)c2)n1`
*A* 5.51

*Q* Kindly indicate its recorded pIC50. Item: `CN(c1cc(Cl)cc(CO)c1)c1ccnc(Nc2cc(N3CCOCC3)cc(N3CCOCC3)c2)n1`
*A* 6.47

*Q* Kindly indicate its recorded pIC50. Item: `CN(c1ccnc(Nc2cc(N3CCCOCC3)cc(N3CCOCC3)c2)n1)c1ccc(F)c(Cl)c1F`
*A* 5.90

*Q* Kindly indicate its recorded pIC50. Item: `CN(c1ccnc(Nc2cc(N3CCOCC3)cc(N3CCOCC3)c2)n1)c1ccc(F)cc1F`
*A* 6.42

*Q* Kindly indicate its recorded pIC50. Item: `C[C@H](CO)NC(=O)c1cc(Nc2nccc(N(C)c3cccc(Cl)c3)n2)cc(N2CCOCC2)c1`
*A* 5.88

*Q* Kindly indicate its recorded pIC50. Item: `COc1cc(N(C)c2ccnc(Nc3cc(N4CCOCC4)cc(N4CCOCC4)c3)n2)ccc1C#N`
*A* 6.69

*Q* Kindly indicate its recorded pIC50. Item: `CCOc1cc(Nc2nccc(N(C)c3cc(CO)ccc3C)n2)cc(N2CCOCC2)c1`
*A* 6.88

*Q* Kindly indicate its recorded pIC50. Item: `CN(CCO)C(=O)c1cc(Nc2nccc(N(C)c3cccc(Cl)c3)n2)cc(N2CCOCC2)c1`
*A* 6.40

*Q* Kindly indicate its recorded pIC50. Item: `CN(c1cccc(Cl)c1)c1ccnc(Nc2cc(C(=O)N3CCCC3)cc(N3CCOCC3)c2)n1`
*A* 6.12

*Q* Kindly indicate its recorded pIC50. Item: `COc1ccc(N(C)c2ccnc(Nc3cc(N4CCOCC4)cc(N4CCOCC4)c3)n2)c(C)c1`
*A* 5.88

*Q* Kindly indicate its recorded pIC50. Item: `Cc1ccc(CO)cc1N(C)c1ccnc(Nc2cc(C(=O)NCC3CC3)cc(N3CCOCC3)c2)n1`
*A* 6.32

*Q* Kindly indicate its recorded pIC50. Item: COCC(C)NC(=O)c1cc(Nc2nccc(N(C)c3cccc(Cl)c3)n2)cc(N2CCOCC2)c1 (stereo not shown)
*A* 5.96

*Q* Kindly indicate its recorded pIC50. Item: `CN(c1ccc(Cl)c(Cl)c1)c1ccnc(Nc2cc(N3CCOCC3)cc(N3CCOCC3)c2)n1`
*A* 6.18
